Biological target: mTGR5 (Mus musculus)
Construct: expressed in transfected cells; host or cells: HEK293 cells, transiently co-transfected with the pCRE TA-Luciferase reporter
Sequence (Q80SS6 whole entry): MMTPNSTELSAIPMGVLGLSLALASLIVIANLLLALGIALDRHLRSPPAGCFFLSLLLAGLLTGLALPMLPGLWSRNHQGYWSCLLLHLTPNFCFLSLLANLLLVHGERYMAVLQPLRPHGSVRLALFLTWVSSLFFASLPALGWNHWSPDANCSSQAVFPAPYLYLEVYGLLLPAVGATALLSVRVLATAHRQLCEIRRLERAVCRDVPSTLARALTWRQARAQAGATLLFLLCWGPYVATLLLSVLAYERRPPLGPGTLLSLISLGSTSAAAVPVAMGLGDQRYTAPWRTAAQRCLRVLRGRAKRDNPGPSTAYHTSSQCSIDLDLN
Assay: TGR5/CRE Luciferase Assay (mTGR5)
Assay type: cell-based
Conditions: percentage of the 10 μM LCA value; HEK 293 cells transfected with mTGR5
Assay readout: mTGR5 % trans (%)

a = COc1ccccc1COC(=O)C1=C(C)N(C[C@H]2CCCO2)C(=O)C[C@H]1c1ccc(C(F)(F)F)nc1 (racemic)
b = COCCN1C(=O)CC(c2ccc(Cl)cc2)C(C(=O)OCc2cccc(C#N)c2)=C1C (stereo not drawn)
Data request: Which item exceeds the other in mTGR5 % trans, a or b ? // caller expects the label of the chosen entry
Data returned: a
(a: 99%, b: 65%)

* * *

Target: mTGR5 (Mus musculus)
Assay: TGR5/CRE Luciferase Assay (mTGR5)
Conditions: HEK 293 cells co-transfected with pCMV AC6-TGR5m and pCRE TA-Luciferase; overnight incubation
Assay readout: EC50 (nM)

A = COc1ccccc1COC(=O)C1=C(C)N(Cc2ccco2)C(=O)CC1c1ccc(Cl)cc1 (stereo not shown)
B = CC1=C(C(=O)OCc2ccccc2)C(c2ccccc2)CC(=O)N1 (stereo not shown)
C = CC1=C(C(=O)OCc2ccccc2)C(c2ccc(Cl)cc2)CC(=O)N1CCS(C)(=O)=O (stereo not shown)
Data request: Sort ascending by EC50: all records listed above. Write the labels, ordered according to the request.
Data returned: A, C, B
(A: 100 nM, C: 5900 nM, B: 10300 nM)

1 = COc1ccccc1COC(=O)C1=C(C)N(C[C@H]2CCCO2)C(=O)C[C@H]1c1ccc(C(F)(F)F)nc1 (racemic)
2 = O=C(NCc1ccccc1)C1=CN(CC2CC2)C(=O)CC1c1ccc(Cl)cc1 (stereo not shown)
3 = COc1ccccc1[C@H](C)OC(=O)C1=C(C)N(C[C@H]2CCCO2)C(=O)C[C@H]1c1ccc(Cl)cc1
Data request: Write the entries in order, lowest recorded EC50 first. Write the labels, ordered according to the request.
Data returned: 1, 3, 2
(1: 100 nM, 3: 1110 nM, 2: 3900 nM)

* * *

Target: hTGR5 (Homo sapiens, UniProt Q8TDU6)
Sequence (Q8TDU6 1-330): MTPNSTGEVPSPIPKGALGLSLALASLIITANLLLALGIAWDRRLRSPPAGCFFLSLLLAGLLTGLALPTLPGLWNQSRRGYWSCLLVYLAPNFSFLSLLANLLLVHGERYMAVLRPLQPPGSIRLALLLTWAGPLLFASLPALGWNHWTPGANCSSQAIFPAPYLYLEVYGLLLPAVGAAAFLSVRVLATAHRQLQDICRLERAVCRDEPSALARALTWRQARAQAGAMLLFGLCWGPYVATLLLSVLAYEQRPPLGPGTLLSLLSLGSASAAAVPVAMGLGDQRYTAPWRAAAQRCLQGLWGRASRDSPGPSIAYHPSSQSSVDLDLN
Experiment: TGR5/CRE Luciferase Assay (hTGR5)
Details: HEK 293 cells co-transfected with pCMV tag4b-TGR5h and pCRE TA-Luciferase; overnight incubation
Protocol: TGR5/CRE Luciferase Assay In the following Tables TGR5 activation by compounds of the invention and subsequent increase in intracellular cAMP were evaluated using a luciferase reporter gene assay. […] Luminescence was read with a Mithras plate reader (Berthold) or a Victor3™ V1420 (Perkin Elmer). […]
Assay readout: EC50 (nM)

In the examples that follow, each entry is paired with its recorded EC50.
>  <Molecule>
CC1=C(C(=O)OCc2ccccc2)C(c2ccc(Cl)cc2)CC(=O)N1Cc1ccccc1 (stereo not shown)

>  <Units>
nM

>  <EC50>
1300

$$$$
>  <Molecule>
COCCN1C(=O)CC(c2ccc(C#N)cc2)C(C(=O)OCc2ccccc2OC)=C1C (stereo not shown)

>  <Units>
nM

>  <EC50>
200

$$$$

I = COCCC1=C(C(=O)OCc2ccccc2)C(c2ccc(Cl)cc2)CC(=O)N1 (stereo not shown)
II = COCCN1C(=O)CC(c2ccc(Cl)cc2)C(C(=O)OCc2ccncc2)=C1C (stereo not shown)
Data request: Which item exceeds the other in EC50, I or II ? // caller expects the label of the chosen entry
Data returned: I
